All figures here come from paper PMC10305003.

target: human farnesyltransferase (Homo sapiens, UniProt P49354+P49356); assay: Human FTase assay (fluorescence, Dansyl-GCVLS peptide); assay type: biochemical; conditions: at 100 µM concentration; read-out: % FTase (inhibition of human farnesyltransferase)
Please mark T if the recorded inhibition at 100 µM is equal to or greater than 90%, and F if it falls below.

[
  {
    "compound-structure": "COc1ccc(/C=C(\\C#N)C(=O)N2c3ccccc3Sc3ccccc32)cc1",
    "system-name": "human farnesyltransferase (Homo sapiens, UniProt P49354+P49356)",
    "label-class": "F"
  },
  {
    "compound-structure": "COc1ccc(/C=C(\\C#N)C(=O)n2c3ccccc3c3ccccc32)cc1F",
    "system-name": "human farnesyltransferase (Homo sapiens, UniProt P49354+P49356)",
    "label-class": "T"
  },
  {
    "compound-structure": "N#C/C(=C\\c1c[nH]c2ccccc12)C(=O)N1c2ccccc2Sc2ccccc21",
    "system-name": "human farnesyltransferase (Homo sapiens, UniProt P49354+P49356)",
    "label-class": "F"
  },
  {
    "compound-structure": "COc1ccc(/C=C(\\C#N)C(=O)n2c3ccccc3c3ccccc32)cc1",
    "system-name": "human farnesyltransferase (Homo sapiens, UniProt P49354+P49356)",
    "label-class": "F"
  },
  {
    "compound-structure": "N#C/C(=C\\c1cccc(O)c1)C(=O)n1c2ccccc2c2ccccc21",
    "system-name": "human farnesyltransferase (Homo sapiens, UniProt P49354+P49356)",
    "label-class": "F"
  },
  {
    "compound-structure": "N#C/C(=C\\c1ccc(Br)cc1)C(=O)n1c2ccccc2c2ccccc21",
    "system-name": "human farnesyltransferase (Homo sapiens, UniProt P49354+P49356)",
    "label-class": "T"
  }
]

* * *

Recorded melting point by entry
recorded-metric: melting point

[
  {
    "compound-structure": "COc1cc(/C=C(\\C#N)C(=O)N2c3ccccc3Sc3ccc(SC)cc32)cc(OC)c1OC",
    "recorded-metric": "melting point",
    "recorded-result": "198 to 199 °C"
  },
  {
    "compound-structure": "Cc1ccc(/C=C(\\C#N)C(=O)N2c3ccccc3Sc3ccccc32)cc1",
    "recorded-metric": "melting point",
    "recorded-result": "221 to 223 °C"
  },
  {
    "compound-structure": "COc1ccc(/C=C(\\C#N)C(=O)N2c3ccccc3Sc3ccccc32)cc1Cl",
    "recorded-metric": "melting point",
    "recorded-result": "> 250 °C"
  },
  {
    "compound-structure": "COc1cc(N(C)C)ccc1/C=C(\\C#N)C(=O)N1c2ccccc2Sc2ccc(SC)cc21",
    "recorded-metric": "melting point",
    "recorded-result": "184 to 186 °C"
  },
  {
    "compound-structure": "COc1ccc(/C=C(\\C#N)C(=O)N2c3ccccc3Sc3ccccc32)cc1[N+](=O)[O-]",
    "recorded-metric": "melting point",
    "recorded-result": "> 250 °C"
  },
  {
    "compound-structure": "CSc1ccc2c(c1)N(C(=O)/C(C#N)=C/c1ccc(N(C)C)cc1)c1ccccc1S2",
    "recorded-metric": "melting point",
    "recorded-result": "221 to 223 °C"
  },
  {
    "compound-structure": "COc1ccc(/C=C(\\C#N)C(=O)N2c3ccccc3Sc3ccccc32)cc1O",
    "recorded-metric": "melting point",
    "recorded-result": "218 to 220 °C"
  },
  {
    "compound-structure": "COc1ccc2c(c1)c(/C=C(\\C#N)C(=O)n1c3ccccc3c3ccccc31)cn2C",
    "recorded-metric": "melting point",
    "recorded-result": "227 to 229 °C"
  },
  {
    "compound-structure": "COc1ccc(OC)c(/C=C(\\C#N)C(=O)n2c3ccccc3c3ccccc32)c1",
    "recorded-metric": "melting point",
    "recorded-result": "156 to 158 °C"
  },
  {
    "compound-structure": "COc1ccc(OC)c(/C=C(\\C#N)C(=O)N2c3ccccc3Sc3ccccc32)c1",
    "recorded-metric": "melting point",
    "recorded-result": "184 to 186 °C"
  },
  {
    "compound-structure": "CSc1ccc2c(c1)N(C(=O)/C(C#N)=C/c1c[nH]c3ccccc13)c1ccccc1S2",
    "recorded-metric": "melting point",
    "recorded-result": "194 to 195 °C"
  },
  {
    "compound-structure": "CSc1ccc2c(c1)N(C(=O)/C(C#N)=C/c1ccc(C(F)(F)F)cc1)c1ccccc1S2",
    "recorded-metric": "melting point",
    "recorded-result": "167 to 169 °C"
  },
  {
    "compound-structure": "N#C/C(=C\\c1ccc(Br)cc1)C(=O)n1c2ccccc2c2ccccc21",
    "recorded-metric": "melting point",
    "recorded-result": "193 to 194 °C"
  },
  {
    "compound-structure": "N#C/C(=C\\c1c(Cl)cccc1Cl)C(=O)n1c2ccccc2c2ccccc21",
    "recorded-metric": "melting point",
    "recorded-result": "173 to 175 °C"
  },
  {
    "compound-structure": "N#C/C(=C\\c1c2ccccc2cc2ccccc12)C(=O)N1c2ccccc2Sc2ccccc21",
    "recorded-metric": "melting point",
    "recorded-result": "> 250 °C"
  },
  {
    "compound-structure": "N#C/C(=C\\c1ccc([N+](=O)[O-])cc1)C(=O)n1c2ccccc2c2ccccc21",
    "recorded-metric": "melting point",
    "recorded-result": "221 to 223 °C"
  },
  {
    "compound-structure": "COc1ccc(/C=C(\\C#N)C(=O)n2c3ccccc3c3ccccc32)cc1O",
    "recorded-metric": "melting point",
    "recorded-result": "211 to 213 °C"
  }
]
